- target.entity: human ALK5 (Homo sapiens (Human), UniProt P36897)
- Sequence (P36897 80-503 limits assumed): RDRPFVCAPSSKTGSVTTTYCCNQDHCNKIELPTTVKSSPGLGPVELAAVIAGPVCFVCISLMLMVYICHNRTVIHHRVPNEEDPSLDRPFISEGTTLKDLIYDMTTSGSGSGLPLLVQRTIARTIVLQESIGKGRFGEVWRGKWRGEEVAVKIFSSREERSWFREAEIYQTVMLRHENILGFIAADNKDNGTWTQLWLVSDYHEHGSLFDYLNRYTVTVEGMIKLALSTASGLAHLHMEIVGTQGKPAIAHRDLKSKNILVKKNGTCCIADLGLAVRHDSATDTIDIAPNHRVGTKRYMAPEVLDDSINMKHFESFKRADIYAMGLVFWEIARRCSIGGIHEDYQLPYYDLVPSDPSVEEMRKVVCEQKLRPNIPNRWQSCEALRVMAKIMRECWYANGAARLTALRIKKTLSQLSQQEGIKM
- assay.name: ADP-GLO Kinases assay, inhibitory activity on ALK5
- Type: biochemical
- protocol.conditions: purified recombinant human ALK5 2.6 nM, TGFβ1 peptide substrate, 25° C, 150 min incubation, ADP-Glo detection; read-out: ALK5 IC50
pIC50: −log10 of the molar value.
property.name: pIC50

Study these solved cases before continuing.
1) Cc1nnc(-c2cc(Cl)ccc2F)cc1Nc1ccnc(NC(=O)CCN2CC3(CN(C)C3)C2)c1 : > 9.00
2) CN1CC[C@@H](OC(=O)c2ccc3c(Nc4cnnc(-c5cc(Cl)ccc5F)c4)ccnc3c2)C1 : 8.30 to 9.00
3) Cc1nnc(-c2cc(Cl)ccc2F)cc1Nc1ccnc(NC(=O)CCN2CCN(CCN)CC2)c1 : > 9.00
4) N#CCCN1CCN(CCOc2ccc3c(Nc4cnnc(-c5cc(Cl)ccc5F)c4)ccnc3c2)CC1 : > 9.00
5) Cc1nnc(-c2cc(Cl)ccc2F)cc1Nc1ccnc(NC(=O)N2CCN(C)CC2)c1 : > 9.00

Give me pIC50 for each of these compounds, listed below.
1. Cc1nnc(-c2cc(Cl)ccc2F)cc1Nc1ccnc(NC(=O)CCN2CCN(C)CC2CO)c1 (stereo not shown)
2. Cc1nnc(-c2cc(Cl)ccc2F)cc1Nc1ccnc2cc(OCCN3CCN(C)CC3)ccc12
3. Cc1nnc(-c2cc(Cl)ccc2F)cc1Nc1ccnc2cc(OC(=O)N3CCN(CCC4CCN(C)CC4)CC3)ccc12
4. O=C(Oc1ccc2c(Nc3cnnc(-c4cc(Cl)ccc4F)c3)ccnc2c1)N1CCC(N2CCC2)CC1

Reply text:
1. > 9.00
2. > 9.00
3. > 9.00
4. > 9.00

Give me pIC50 for each of these compounds, listed below.
1. COC(=O)c1cccc(-c2cc(Nc3ccnc(N)c3)cnn2)c1F [Example C3, reference compound]
2. CN(C)CCN1CCN(C(=O)Oc2ccc3c(Nc4cnnc(-c5cc(Cl)ccc5F)c4)ccnc3c2)CC1
3. CCOC(=O)C1CN(CCC(=O)Nc2cc(Nc3cc(-c4cc(Cl)ccc4F)nnc3C)ccn2)CCN1C (stereo not shown)
4. Cc1nnc(-c2cc(Cl)ccc2F)cc1Nc1ccnc(NC(=O)CCN2CCNC(CC(=O)O)C2)c1 (stereo not shown)
5. O=C(CCCN1CCOCC1)Nc1cc(Nc2cnnc(-c3cc(Cl)ccc3F)c2)ccn1
6. OCCN(CCO)CCN1CCN(CCOc2ccc3c(Nc4cnnc(-c5cc(Cl)ccc5F)c4)ccnc3c2)CC1

Reply text:
5.00
> 9.00
> 9.00
> 9.00
> 9.00
> 9.00

* * *

I'd be grateful if you could share measured IC50 for these entries.
- target.entity: human ALK5 (Homo sapiens (Human))
- assay.name: ADP-GLO Kinases assay, inhibitory activity on ALK5
- Format: biochemical
- protocol.conditions: purified recombinant human ALK5 2.6 nM, TGFβ1 peptide substrate, 25° C, 150 min incubation, ADP-Glo detection; read-out: ALK5 IC50

Study these solved cases before continuing.
1. Cc1nnc(-c2cc(Cl)ccc2F)cc1Nc1ccnc(NC(=O)CCN2CCS(=O)(=O)CC2)c1 [Example 132] : < 1 nM
2. CN1C[C@@H]2CN(CCOc3ccc4c(Nc5cnnc(-c6cc(Cl)ccc6F)c5)ccnc4c3)C[C@@H]2C1 [Example 55] : < 1 nM

Give me IC50 for each of these molecules, listed below.
1. CN1CCC(Oc2ccc3c(Nc4cnnc(-c5cc(Cl)ccc5F)c4)ccnc3c2)CC1 [Example 73]
2. CN1CCC(NC(=O)c2cc3c(Nc4cnnc(-c5cc(Cl)ccc5F)c4)ccnc3cn2)CC1 [Example 26]
3. Cc1nnc(-c2cc(Cl)ccc2F)cc1Nc1ccnc(NC(=O)[C@H]2C[C@@H](N3CCN(C)CC3)C2)c1 [Example 162]
4. Fc1ccc(Cl)cc1-c1cc(Nc2ccncc2)c(C(F)(F)F)nn1 [Example 181]
5. Cc1nnc(-c2cc(Cl)ccc2F)cc1Nc1ccnc(NC(=O)CCN2CC[S+]([O-])CC2)c1 [Example 130]
6. Cc1nnc(-c2cc(Cl)ccc2F)cc1Nc1ccnc(NC(=O)CCN2CCN(CCNS(C)(=O)=O)CC2)c1 [Example 136]

Reply text:
< 1 nM
1 to 5 nM
< 1 nM
< 1 nM
< 1 nM
< 1 nM
